Test: PubChem AID 1554
Conditions: BJeLR (HRASV12) viability, CellTiter-Glo ATP luminescence, 48 h; active compounds read high; concentration not given here
The campaign covered roughly 300,000 compounds. About 520 (0.17%) were called active. The entries come from a sample that favours actives as a whole.
In this section we review reported inhibition values for a set of molecules.
Just the number in %, nothing appended.

Look over these answered cases.
CCCCOc1ccc(C(=O)NN2CCN(C)CC2)cc1    1.04
O=C(CCC(=O)NNc1nc2ccccc2c2nc(-c3ccccc3)nn12)NCCCN1CCCC1=O    0.872
CCCOc1ccc(C(=O)CCC(=O)OC(C)C(=O)Nc2ccc(NC(C)=O)cc2)cc1 (stereo not drawn)    0.465
COc1cc(NS(=O)(=O)c2ccc(NC(=S)NC(=O)c3ccc(Br)cc3)cc2)ncn1    -4.7
CC(NC(=O)Cn1cc(C(F)(F)F)cc(Cl)c1=O)c1ccccc1 (stereo not drawn)    -4.93

Exercise: Quick check: inhibition of CCOC(=O)c1cc2cc3ccccc3cc2oc1=O ?
Key: -11.8

Exercise: Quick check: inhibition of COc1cc(NC(=O)CSC(=S)N2CCCC2)c(OC)cc1Cl ?
Key: -1.51

Exercise: Quick check: inhibition of Cc1nnc(SCC(=O)N2c3ccccc3C(C)(c3ccc(Cl)cc3)CC2(C)C)s1 (stereo not drawn) ?
Key: 13.1

====

Assay: PubChem AID 1554
Conditions: BJeLR (HRASV12) viability, CellTiter-Glo ATP luminescence, 48 h; concentration not given here
In all, about 300,000 compounds went through this assay and about 520 (0.17%) were called active. Rule as the data show it: active = inhibition above about 50%; inconclusive = no clear call, values can overlap the other calls; inactive = below that. This excerpt belongs to a sample that is enriched for actives.
Mark one answer only. Choices: TRUE (active), FALSE (inactive)

Illustrative cases are given below, each with its answer.
COc1cccc(C(=O)Nc2ccc(N3CCN(C(=O)c4ccco4)CC3)cc2)c1    FALSE
CCC(C)Sc1nc2c(cnn2-c2ccc(F)cc2)c(=O)[nH]1 (stereo not given)    FALSE
C=CCNc1nc(N)c([N+](=O)[O-])c(NC2CCCCC2)n1    FALSE
Cc1cccc(NC(=O)/C=C/c2ccc3c(c2)OCO3)n1    FALSE
COc1ccc(NC(=O)C(C)N2c3cccc4cccc(c34)S2(=O)=O)c(OC)c1 (stereo not given)    FALSE

Exercise: Hi, do you know how O=C(/C=C/c1ccco1)Nc1cccc(-c2nc3ccccc3[nH]2)c1 came out in this test?
Key: FALSE

Exercise: Hi, do you know how O=C(NNc1c2ccccc2nc2ccccc12)c1cc2ccccc2cc1O came out in this test?
Key: FALSE

Exercise: Hi, do you know how COC(=O)c1c(C(=O)OC)c(-c2cccc(C)c2)n2c1CS(=O)C2 (stereo not given) came out in this test?
Key: FALSE

====

Experiment: PubChem AID 1554
Settings: BJeLR (HRASV12) viability, CellTiter-Glo ATP luminescence, 48 h; concentration not given here
Among all 300,000 compounds or so, about 520 (0.17%) were called active. No stated cut-off is given here; in the data, active means inhibition above about 50%; inconclusive means no clear call, values can overlap the other calls; inactive means below that. This excerpt belongs to a sample that is enriched for actives.
Mark one answer only. Choices: yes (active), no (inactive)

Illustrative cases are given below, each with its answer.
CCOC(=O)c1sc(C)c2c1NC(C)(c1cccc3ccccc13)NC2=O (configuration not stated)    no
CCCCCN1CC(O)=C(c2ccccc2)C1=N    no
N#C/C(=C(\O)C(F)(F)F)c1nnc2n1CCCCC2    no
CN1CCN(c2ccc(NC(=O)c3ccccc3)cc2)CC1    no
COc1cc(OC)cc(C(=O)N[C@H](C(=O)OCC(=O)NC(C)c2ccccc2)C(C)C)c1 (some centres not stated)    no
Nc1ccc(-n2nncc2-c2ccco2)cc1    no

Exercise: Hi, do you know how CC1(C)CC(=O)C=C(N2CCCC2)C1 came out in this test?
Key: no

Exercise: Hi, do you know how O=C(c1ccc(OC2CCN(Cc3ccccn3)CC2)cc1)N1CCCCCC1 came out in this test?
Key: no

Exercise: Hi, do you know how O=C(NCc1ccccc1Cl)c1ccc2c(=O)n(CC3CCCO3)c(=S)[nH]c2c1 (configuration not stated) came out in this test?
Key: no

====

Test: PubChem AID 1554
Conditions: BJeLR (HRASV12) viability, CellTiter-Glo ATP luminescence, 48 h; active compounds read high; concentration not given here
Screen size: about 300,000 compounds; about 520 (0.17%) were called active. This is one part of a sample in which actives are shown more often than they occur.
In this section we review reported inhibition values for a set of compounds.
Just the number in %, nothing appended.

O=C(Nc1ccc(Cl)cc1)/C(=C1\CCCN1)[N+](=O)[O-]    -2.59
COc1cccc(NC(=O)c2ccccc2N(Cc2ccccc2)S(C)(=O)=O)c1    3.05
CC(=O)N1CCN(c2ccc(NCc3ccc(C(C)C)cc3)cc2)CC1    -2.24

Exercise: Quick check: inhibition of COC(=O)CCSc1cc([N+](=O)[O-])cc2c1c(C1OCCS1)nn2-c1ccccc1 (stereo not drawn) ?
Key: 3.81

Exercise: Quick check: inhibition of CCOC(=O)c1sc(NC(=O)CSc2nc(O)c(Cc3ccccc3)c(=O)[nH]2)nc1C ?
Key: 5.77

====

Experiment: PubChem AID 1554
Details: BJeLR (HRASV12) viability, CellTiter-Glo ATP luminescence, 48 h; active compounds read high; concentration not given here
About 520 (0.17%) of roughly 300,000 compounds were called active. The full list was thinned out, with actives kept by preference.
In this section we review reported inhibition values for a set of compounds.
Just the number in %, nothing appended.

COc1c(C(=O)N2CCCC2)ccc2ccccc12    -16.2
COc1cc(-c2c(-c3ccc4c(c3)OCO4)noc2C)ccc1F    -5.31
Cc1nnc(NC(=O)/C=C/c2ccco2)s1    2.63
O=C(NCc1ccc2c(c1)OCO2)c1sccc1Br    -9.24
COc1ccc(C(=O)O)cc1S(=O)(=O)NCc1cccnc1    4.17
O=C1CC(N2CCN(C(c3ccccc3)c3ccccc3)CC2)C(=O)N1 (stereo not drawn)    -3.58
COc1ccc(C(=O)N[C@H](C(=O)NCc2ccccc2)C(C)C)cc1    -8.87
Cn1c(Cc2cccs2)nnc1SCC(=O)Nc1ccccc1    -23.8
COc1cc([N+](=O)[O-])ccc1NC(=S)N1CCN(c2ccccn2)CC1    -1.41
CC(C)CC[n+]1ccn(C2=C([O-])c3ccccc3C(=O)/C2=N\S(=O)(=O)c2ccccc2)c1    -5.54

Exercise: Quick check: inhibition of CCOC(=O)C1CCN(S(=O)(=O)c2ccc3c(c2)N(C(C)=O)CCO3)CC1 ?
Key: 6.7

Exercise: Quick check: inhibition of CCCc1cc(=O)[nH]c(SCC(=O)c2c(N)n(CC(C)C)c(=O)n(C)c2=O)n1 ?
Key: 63.2

Exercise: Quick check: inhibition of O=c1c(Cl)c(NC2CC2)cnn1-c1ccccc1 ?
Key: -3.03
